target: Calcium and integrin-binding protein 1 (Homo sapiens) (UniProt Q99828); experiment: Primary qHTS for Identification of Calcium Integrin Binding Protein 1 (CIB1) Competitor (AID 1508620); settings: CIB1-GST / FITC-alphaIIb peptide fluorescence polarization; series mostly up to 114 µM;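 note: GST tagged CIB1 binding a fluorescein labelled alphaIIb integrin peptide tracer; top concentration of the series differs between compounds; % is set by controls: 0 for no effect and ±100 for the full control effect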
Sequence (Q99828 whole entry, looked up): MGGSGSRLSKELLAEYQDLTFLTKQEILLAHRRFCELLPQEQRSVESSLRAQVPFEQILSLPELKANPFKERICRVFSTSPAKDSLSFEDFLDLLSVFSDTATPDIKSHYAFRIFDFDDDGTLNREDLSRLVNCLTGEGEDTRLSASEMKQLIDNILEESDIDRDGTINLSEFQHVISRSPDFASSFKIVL
Records with an inconclusive call do not appear. The source made the active and inactive calls. Calls come from the whole dose curve; as a rule, active = well fitted inhibition curve with a large enough effect; inconclusive = small, poorly fitted or top-dose-only effect; inactive = flat fitted curve, though single readings scatter.
Endpoint Label: outcome

# Compound, Result
measured = [
    ("O=C1CCCC2=C1C(c1[nH]ncc1Cl)NC(=NCc1ccncc1)N2 (stereo not given)", "inactive"),
    ("COc1cc(O)c(C(CC(=O)N2CCCC(C(=O)N3CCCCC3)C2)c2ccc3c(c2)OCO3)c(OC)c1 (stereo not given)", "inactive"),
    ("CN1CCOc2ccc(S(=O)(=O)N3CCN(S(=O)(=O)c4c(F)cccc4F)CC3)cc21", "inactive"),
    ("Cn1cnc(CCNc2ncnc3ccc(-c4ccc5c(c4)OCO5)cc23)c1", "inactive"),
    ("COCCN(CCOC)c1nc(C)nc2c1nc(-c1ccccc1)n2CCCN(C)C", "inactive"),
    ("Cc1cc2c(s1)c1cnn(Cc3c(F)ccc(C)c3Cl)c(=O)c1n2C", "inactive"),
    ("CCOc1ccc(CCNC(=O)C2CCCCC2)cc1OCC", "inactive"),
    ("O=C1Nc2ccccc2/C1=C/c1cccc(C(=O)O)c1", "inactive"),
    ("Cc1nnc2sc(-c3cccc(NC(=O)c4ccc(-c5cccc(Cl)c5)o4)c3)nn12", "inactive"),
]

// lookup outcome for `CC(C)(C)c1cc(O)c(CN)c(C(C)(C)C)c1` inactive

---

List of Potency values.
experiment: Primary qHTS for inhibitors of nuclear receptor binding SET domain protein 2 (NSD2) in an isogenic RCH-ACV NSD2 p.E1099K mutant (9B) (AID 1645876); conditions: RCH-ACV (leukaemia line) NSD2 E1099K (9B) viability, CellTiter-Glo, 72 h; series mostly up to 44.9 µM; note: potency is the fitted concentration of half-maximal effect; nearly all actives have a fitted effect of over 70% in size
Inconclusive results are not listed. The source made the active and inactive calls. The call rests on the fitted dose curve; in most records, active means well fitted inhibition curve with a large enough effect; inconclusive means small, poorly fitted or top-dose-only effect; inactive means flat fitted curve, though single readings scatter.

# annotated cases, reported Potency shown
# Sample Smiles, Result
rows = [
    ("Cc1ccc(S(=O)(=O)Nc2cc(-c3ccc(C#N)s3)ccc2C)cc1", "46.8 nM (active)"),
    ("Cc1ccc(NS(=O)(=O)c2cccc(C#N)c2)c2[nH]cc(C#N)c12", "372 nM (active)"),
    ("Nc1n[n+]([O-])c2ccccc2[n+]1[O-]", "18600 nM (active)"),
    ("Cc1c(-c2cnccn2)ssc1=S", "16600 nM (active)"),
]

Consider the record given below.
Need Potency of `Cc1c(-c2c(-c3ccc(F)o3)sc3ncnc(O[C@@H](Cc4ccccc4OCc4ccnn4CC(F)(F)F)C(=O)O)c23)ccc(OCCN2CCN(C)CC2)c1Cl` , thanks. 662 nM (active)

---

Test: Stat Signaling Pathway (AID 446);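 note: ME-180 cervical cancer cells given 40 pM IL-6 alongside compound; SIE-controlled beta-lactamase reporter measured as 460/530 nm FRET emission ratio; % is set by controls: 0 for no effect and ±100 for the full control effect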
Conditions: ME-180 (cervical carcinoma) SIE beta-lactamase reporter, IL-6 stimulated, 5 h; at 7.69 µM (top of the series) unless noted
Description: NCGC Assay Overview: The IL-6/STAT signaling pathway was assayed in ME-180 cervical carcinoma cells by a beta-lactamase reporter gene controlled by a STAT Inducible Element (SIE). This reporter is induced by IL-6 at 40 pM AC50 and inhibited by the pan JAK inhibitor, 2-(1,1-Dimethylethyl)-9-fluoro-3,6-dihydro-7H-benz[h]-imidaz[4,5-f]isoquinolin-7-one, at approximately 10 nM AC50. Plated cells were incubated overnight and on the following day, stimulated with 40 pM IL-6 for 5 hrs. […]
Results filed as inconclusive are left out. Activity calls are given as the source filed them. Calls come from the whole dose curve; as a rule, active = well fitted curve in either direction with a large enough effect (not every such curve was filed as active); inconclusive = small, poorly fitted or top-dose-only effect, or another doubt; inactive = flat fitted curve, though single readings scatter.
Endpoint Label: activity, negative = inhibition

Would you please look over these solved cases?
# Sample Smiles, Result
measured = [
    ("Cc1noc(C)c1C(=O)N1CCC2(CC1)CN(c1ccccc1)C2", "-19% (inactive)"),
    ("Cc1noc(C)c1-c1cc(N(C)C)ncn1", "16% (inactive)"),
    ("O=C(c1ccncc1)N1CCC2(CC1)CN(c1ccccc1)C2", "3.39% (inactive)"),
    ("O=C(c1csnn1)N1CCC2(CC1)CCN(c1ncccn1)CC2", "-5.07% (inactive)"),
    ("O=C(c1ccncc1)N1CCC2(CC1)CCN(c1cccc(-c3ccccc3)c1)CC2", "-12.5% (inactive)"),
]

With those in mind, consider the next compound.
Endpoint output: activity, negative = inhibition of `COc1ccc(-c2nc3cnc(Oc4ccccc4)nc3n(CCC#N)c2=O)cc1` . Value? -20% (inactive)
